# Tested on: Staphylococcus aureus
# Procedure Summary: Antimicrobial activity against Staphylococcus aureus RN4220 after 24 hrs by double dilution method
# Format: functional
# Assay Context: RN4220, 24 h
Measure Name: MIC

- Molecule: "CN(C)[C@@H]1C(O)=C(C(N)=O)C(=O)[C@@]2(O)C(O)=C3C(=O)c4c(O)cccc4[C@@](C)(O)[C@H]3C[C@@H]12"
  Measure Name: "MIC"
  Result: "< 2 µg/mL"
- Molecule: "N#Cc1ccc(C(=O)N(CCCc2ccccc2)CC(=O)N2CCNCC2)cc1"
  Measure Name: "MIC"
  Result: "> 128 µg/mL"
- Molecule: "CC(C)C1CCC(C(=O)NCC(=O)NCc2ccccc2)CC1 (stereo not drawn)"
  Measure Name: "MIC"
  Result: "> 128 µg/mL"
- Molecule: "CCCC(=O)N(Cc1ccccc1)C(C(=O)NCCCCN)c1ccc(Br)cc1 (stereo not drawn)"
  Measure Name: "MIC"
  Result: "32 µg/mL"
- Molecule: "CCC(C)C(=O)NCC(=O)N1CCN(Cc2ccccc2)CC1 (stereo not drawn)"
  Measure Name: "MIC"
  Result: "> 128 µg/mL"
- Molecule: "N=C(N)NCCCC[C@H](O)CC(=O)N[C@@H](O)C(=O)NCCCCNCCCN"
  Measure Name: "MIC"
  Result: "6.25 µg/mL"
- Molecule: "CC(C)SCC(=O)NCC(=O)NCc1ccccc1"
  Measure Name: "MIC"
  Result: "> 128 µg/mL"
- Molecule: "NCCCCNC(=O)C(c1ccc(Br)cc1)N(Cc1ccccc1)C(=O)CCS (stereo not drawn)"
  Measure Name: "MIC"
  Result: "8 µg/mL"

Where do these numbers come from? They come from ChEMBL document CHEMBL3751709.
